Values were extracted from paper PMC10033663.

- experiment.description: Pharmacokinetics of 2C-B-Fly-NBOMe in blood serum and brain tissue (LC/MS)
- Assay type: in vivo, male Wistar rats
- conditions: male, Wistar, rat, subcutaneous; blood serum; 1 mg/kg s. c.; read-out: half-life of elimination (converted)
observation.type: half-life (h)
Answer format: numeric, h implied, no suffix.

Answer with reported half-life of COc1ccccc1CNCCc1c2c(c(Br)c3c1OCC3)OCC2 1.56

====

- experiment.description: Pharmacokinetics of 2C-B-Fly-NBOMe in blood serum and brain tissue (LC/MS)
- Format: in vivo, male Wistar rats
- conditions: male, Wistar, rat, subcutaneous; brain; 1 mg/kg s. c.; read-out: half-life of elimination (converted)
observation.type: half-life
Please answer using the number first and the unit second.

Please list half-life recorded for the compound COc1ccccc1CNCCc1c2c(c(Br)c3c1OCC3)OCC2 2.4 h
